src = ChEMBL document CHEMBL1201862

Tested on: UO-31
Experiment: NCI tumour cell line growth inhibition, 48 h
Activity calls are given as the source filed them. Rule as the data show it: active = GI50 up to about 1.1 µM and inactive = higher.
reportedProperty: GI50

> print(dat)
                                    compound  studytarget  reportedproperty               result
 1               O=C(NO)C(=O)Nc1cc(Cl)ccc1Cl        UO-31              GI50     22 µM (inactive)
 2  Cc1ccc(-c2nc(-c3cnccn3)n(C3OC(CO)C(O)C(O)C3O)n2)cc1 (centres undefined)        UO-31              GI50  > 100 µM (inactive)
 3            CC(=O)/C(=N\O)C(=O)NCCc1ccccc1        UO-31              GI50  > 100 µM (inactive)
 4  COc1ccc(Oc2cccc(/C=C3/C(=O)Nc4ccccc43)c2)cc1        UO-31              GI50   6.82 µM (inactive)
 5  C#CCn1c(=O)c(C)cn(/C(=C\C(=O)OCC)C(=O)OCC)c1=O        UO-31              GI50   12.7 µM (inactive)
 6                    O=c1c(Cl)c(Cl)cnn1CCCl        UO-31              GI50   5.75 µM (inactive)
 7             O=C1CCC2(CCC(=O)NC2=O)C(=O)N1        UO-31              GI50  > 100 µM (inactive)
 8  COc1cc2ccnc(-c3n[nH]c4cc(OC)c(OC)cc34)c2cc1OC        UO-31              GI50  > 100 µM (inactive)
 9  C=C=C(CC1CCCCC1=O)S(=O)(=O)c1ccccc1 (centres undefined)        UO-31              GI50   > 10 µM (inactive)
10        O=S(=O)(C/C(=N\O)c1ccccc1)c1ccccc1        UO-31              GI50  > 100 µM (inactive)
11  Cc1cc(S(=O)(=O)O)c(NC(=O)C(=O)Cc2cc(=O)oc3cc(O)ccc23)cc1Cl        UO-31              GI50  > 100 µM (inactive)
12  Cn1cnc([N+](=O)[O-])c1Sc1nnc(-c2ccc(Cl)cc2)n1C        UO-31              GI50   14.6 µM (inactive)
13  CC(C)=C1C(=O)C[C@@]2(C)C[C@H]3OC3(C)CC/C=C(/C)CCC12 (some centres undefined)        UO-31              GI50   68.2 µM (inactive)
14  CCN1CCC(O)(/C=C/c2ccc(Cl)c(Cl)c2)C(C(=O)/C=C/c2ccc(Cl)c(Cl)c2)C1 (centres undefined)        UO-31              GI50    0.995 µM (active)

----------
Test system: HCT-116
Test: NCI tumour cell line growth inhibition, 48 h
The source made the active and inactive calls. No stated cut-off is given here; in the data, active = GI50 up to about 1.1 µM and inactive = higher.
Possible outcomes: active, inactive

> print(dat)
                                    compound     label
 1        O=C(CN1CCOCC1)c1ccc2[nH]c(=O)oc2c1  inactive
 2             Cc1n[nH]c(=O)n1N1C(=O)CCCC1=O  inactive
 3  CN(C)S(=O)(=O)c1ccc2c(c1)/C(=C1/Nc3ccccc3C1=O)C(=O)N2  inactive
 4  CC(C1=CC=C2[C@@H]3CCC4CC(N(C)C)CC[C@]4(C)C3CC[C@]12C)N(C)C=O (some centres undefined)  inactive
 5             CCCCCCCNC(P(=O)(O)O)P(=O)(O)O  inactive
 6  COc1cc(OCCN(C)C)c2[nH]c(C(=O)N3CC(CCl)c4c3cc(N)c3ccccc43)cc2c1 (centres undefined)    active
 7  Cc1ccc(S(=O)(=O)N2CCCN(S(=O)(=O)c3ccc(C)cc3)CCN(S(=O)(=O)c3ccc(C)cc3)CCCSCC2)cc1  inactive
 8  O=C(O)C(O)C(O)C(O)C(O)CO.[Ba+2] (centres undefined)  inactive
 9  O=C(O)c1cc2c3c(c1)[C@H]1C=CC[C@H]1CN3CC1CC=CC21 (some centres undefined)  inactive
10  C[C@H](C/C=C/C(C)(C)O)[C@H]1CC[C@@]2(C)[C@@H]3CC[C@H]4C(C)(C)[C@@H](O)CC[C@@]45C[C@@]35CC[C@]12C  inactive
11  CC1(C)OCC2OC3([C@H](O)CCO)OC(C)(C)OC3C2O1 (some centres undefined)  inactive
12  COc1nc2ncc([C@@H](OC(C)=O)[C@@H](COC(C)=O)OC(C)=O)nc2c(=O)[nH]1  inactive
13  C=C(CCCCC)CN1CCCC1C(C)=O (centres undefined)  inactive
14  CCCCCCCCCCC(C(=O)O)C1(C(=O)O)CCC(=O)O1 (centres undefined)  inactive
